Hello, the source for this data is the NIST ThermoML archive (doi:10.1016/j.fluid.2012.08.002), in case you need it.

In this section we review reported speed of sound values for a set of molecules.
Settings: 293.15 K; 101.33 kPa; Liquid; Sing-around technique in a fixed-path interferometer
metric: speed of sound (m/s)

[[record]]
molecule = "CCCCCCn1cc[n+](C)c1.[Br-] [3-hexyl-1-methyl-1H-imidazolium bromide]"
metric = "speed of sound"
unit_abbrev = "m/s"
recorded_result = 1610.6

[[record]]
molecule = "CCCCCCn1cc[n+](C)c1.F[P-](F)(F)(F)(F)F [1-hexyl-3-methylimidazolium hexafluorophosphate]"
metric = "speed of sound"
unit_abbrev = "m/s"
recorded_result = 1434.1

[[record]]
molecule = "CCCCCCn1cc[n+](C)c1.F[B-](F)(F)F [1-hexyl-3-methylimidazolium tetrafluoroborate]"
metric = "speed of sound"
unit_abbrev = "m/s"
recorded_result = 1535

[[record]]
molecule = "COCCO"
metric = "speed of sound"
unit_abbrev = "m/s"
recorded_result = 1359


* * *

Conditions: 303.15 K; 101.33 kPa; Liquid; Sing-around technique in a fixed-path interferometer
metric: speed of sound (m/s)

[[record]]
molecule = "CCCCCCn1cc[n+](C)c1.F[P-](F)(F)(F)(F)F [1-hexyl-3-methylimidazolium hexafluorophosphate]"
recorded_result = 1407.3

[[record]]
molecule = "COCCO"
recorded_result = 1324.5

[[record]]
molecule = "CCCCCCn1cc[n+](C)c1.[Br-] [3-hexyl-1-methyl-1H-imidazolium bromide]"
recorded_result = 1568.1

[[record]]
molecule = "CCCCCCn1cc[n+](C)c1.F[B-](F)(F)F [1-hexyl-3-methylimidazolium tetrafluoroborate]"
recorded_result = 1509.2

